Sourced from paper PMC8843742

TESTED SYSTEM: TET1 (Homo sapiens)
Construct: recombinant catalytic domain (Epigentek, E12002-1)
Sequence (Q8NFU7 1418-2136 limits assumed): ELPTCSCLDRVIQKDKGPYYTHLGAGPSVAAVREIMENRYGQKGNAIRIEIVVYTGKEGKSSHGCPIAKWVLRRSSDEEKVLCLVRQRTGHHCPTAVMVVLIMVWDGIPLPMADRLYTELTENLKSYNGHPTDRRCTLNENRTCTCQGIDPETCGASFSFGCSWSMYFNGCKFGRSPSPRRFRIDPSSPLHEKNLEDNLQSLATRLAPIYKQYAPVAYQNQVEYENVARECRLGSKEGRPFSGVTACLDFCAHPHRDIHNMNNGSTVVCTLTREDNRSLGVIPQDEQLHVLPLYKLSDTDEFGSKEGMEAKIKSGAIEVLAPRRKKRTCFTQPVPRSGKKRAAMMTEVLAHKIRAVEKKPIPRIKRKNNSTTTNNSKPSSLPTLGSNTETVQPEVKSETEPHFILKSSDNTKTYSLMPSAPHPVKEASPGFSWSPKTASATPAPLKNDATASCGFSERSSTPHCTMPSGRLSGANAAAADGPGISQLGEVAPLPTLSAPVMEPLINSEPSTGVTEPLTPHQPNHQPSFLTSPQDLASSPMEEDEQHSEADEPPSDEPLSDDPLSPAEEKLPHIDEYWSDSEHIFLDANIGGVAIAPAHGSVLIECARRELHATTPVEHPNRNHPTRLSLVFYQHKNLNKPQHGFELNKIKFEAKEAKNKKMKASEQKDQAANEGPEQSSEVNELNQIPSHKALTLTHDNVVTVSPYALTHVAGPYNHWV
ASSAY DETAILS: 5hmC ELISA with recombinant protein
PARAMETER: IC50 (nM)
Your answer is read as nM, so omit the unit and give the number.

In: Would you kindly share the measured IC50 for CC1=NN(c2ccc(C)c(C)c2)C(=O)/C1=N\Nc1cccc(-c2cccc(C(=O)O)c2)c1O ?
Out: 1000
